Test system: BDF1 mice, B16 melanoma ip, median survival T/C
Protocol: NCI In Vivo Anticancer Drug Screen. Data for tumor model B16 Melanoma (intraperitoneal) in B6D2F1 (BDF1) mice
Applied Conditions: endpoint: median survival time; dose: 12.5 mg/kg/injection; schedule: Q01DX009 (ip); vehicle: Klucel (hydroxypropylcellulose) (HPC); higher = longer survival
Toxic doses and inconclusive results are not listed.
Readings of T/C for the listed compounds
Property Measured: T/C

In [3]: df
Out[3]:
                                    compound  property_measured         obs_value
 0                COc1cccc(NC(=O)CCC(=O)O)c1                T/C   94 % of control
 1  O=C(Nc1ccc(Cl)c(Cl)c1)Nc1c(Oc2ccc(Cl)c(Cl)c2)ccc(Cl)c1S(=O)(=O)O                T/C  105 % of control
 2  COC1C(CO)OC(n2cnc3c(=S)nc(N)[nH]c32)C1O (stereo unspecified)                T/C  112 % of control
 3                Nc1ccc(-c2ccc3ccccc3n2)cc1                T/C  104 % of control
 4  CCCCNC(C)(C)C(S)c1ccc(Cl)cc1 (stereo unspecified)                T/C   97 % of control
 5               O=S(=O)(CCCl)c1ccc2ccccc2c1                T/C  104 % of control
 6  Clc1ccc(C[P+](c2ccccc2)(c2ccccc2)c2ccccc2)cc1Cl                T/C  107 % of control
 7  CC(=O)OCC1OC(OC2=C(CC=C(C)C)C(=O)c3ccccc3C2=O)C(OC(C)=O)C(OC(C)=O)C1OC(C)=O (stereo unspecified)                T/C   87 % of control
 8                Cc1ccc(NC(=O)NC(C)C)c(C)c1                T/C   95 % of control
 9           COc1ccc(CN(CCN(C)C)c2ccccn2)cc1                T/C  100 % of control
10  COc1c(I)c2c(c(OC)c1OC)-c1ccc(OC)c(=O)cc1C(NC(C)=O)CC2 (stereo unspecified)                T/C  112 % of control
